Observed IC50 for MAPK14 (human) (UniProt Q16539), reported per entry below.

smiles-record	system	IC50
O=c1c(Br)c(NCc2ccc(Cl)cc2F)ccn1Cc1cccc(F)c1	MAPK14 (human) (UniProt Q16539)	1000 to 25000 nM
O=C(O)c1cc(OCc2ccc(F)cc2F)c(Br)c(=O)n1-c1c(F)cccc1F	MAPK14 (human) (UniProt Q16539)	1000 to 25000 nM
COCC(=O)NCc1cccc(-n2c(C)cc(OCc3ccc(F)cc3F)c(Br)c2=O)c1	MAPK14 (human) (UniProt Q16539)	1000 to 25000 nM
Cc1cc(OCc2ccc(F)cc2F)c(Br)c(=O)n1-c1cccc(C(=O)NCCN)c1	MAPK14 (human) (UniProt Q16539)	< 1000 nM
Cc1cc(OCc2ccc(F)cc2F)c(Br)c(=O)n1-c1c(F)cc(N(C)C)cc1F	MAPK14 (human) (UniProt Q16539)	< 1000 nM
O=c1c(Cl)c(OCc2ccc(F)cc2F)cc(CO)n1-c1c(F)cccc1F	MAPK14 (human) (UniProt Q16539)	< 1000 nM
Cc1ccc(C(N)=O)cc1-n1c(C)cc(OCc2ccc(F)cc2F)c(Cl)c1=O	MAPK14 (human) (UniProt Q16539)	< 1000 nM
O=c1c(Br)c(OCc2ccccc2Cl)ccn1Cc1ccccc1	MAPK14 (human) (UniProt Q16539)	1000 to 25000 nM
Cc1cc(OCc2ccc(F)cc2F)c(Br)c(=O)n1Cc1ccnc(CN)n1	MAPK14 (human) (UniProt Q16539)	1000 to 25000 nM
COC(=O)c1ccc(Cn2ccc(OCc3ccccc3)c(Br)c2=O)cc1	MAPK14 (human) (UniProt Q16539)	< 1000 nM
O=c1c(Br)c(OCc2ccc(C(F)(F)F)cc2)ccn1Cc1cccc(F)c1	MAPK14 (human) (UniProt Q16539)	1000 to 25000 nM
Cc1cc(OCc2ccc(F)cc2F)c(Br)c(=O)n1Cc1ccc(C(=O)NCCN)cc1	MAPK14 (human) (UniProt Q16539)	< 1000 nM
Cc1cccc(C)c1-n1c(C)cc(OCc2ccc(F)cc2F)c(Br)c1=O	MAPK14 (human) (UniProt Q16539)	< 1000 nM
Cc1ccc(CO)cc1-n1c(C)cc(OCc2ccc(F)cc2F)c(Br)c1=O	MAPK14 (human) (UniProt Q16539)	< 1000 nM
COC(=O)CCn1ccc(OCc2ccccc2)c(Br)c1=O	MAPK14 (human) (UniProt Q16539)	1000 to 25000 nM
Cc1cc(OCc2ccc(F)cc2F)c(Br)c(=O)n1-c1ccc(C(=O)NO)cc1	MAPK14 (human) (UniProt Q16539)	> 100000 nM
CCn1ccc(OCc2ccccc2)c(Br)c1=O	MAPK14 (human) (UniProt Q16539)	1000 to 25000 nM
